The values you see were collected from patent US10336762B2.

# TARGET ENTITY: IRAK4 enzyme (Homo sapiens (Human), UniProt Q9NWZ3)
# Sequence (Q9NWZ3 whole entry): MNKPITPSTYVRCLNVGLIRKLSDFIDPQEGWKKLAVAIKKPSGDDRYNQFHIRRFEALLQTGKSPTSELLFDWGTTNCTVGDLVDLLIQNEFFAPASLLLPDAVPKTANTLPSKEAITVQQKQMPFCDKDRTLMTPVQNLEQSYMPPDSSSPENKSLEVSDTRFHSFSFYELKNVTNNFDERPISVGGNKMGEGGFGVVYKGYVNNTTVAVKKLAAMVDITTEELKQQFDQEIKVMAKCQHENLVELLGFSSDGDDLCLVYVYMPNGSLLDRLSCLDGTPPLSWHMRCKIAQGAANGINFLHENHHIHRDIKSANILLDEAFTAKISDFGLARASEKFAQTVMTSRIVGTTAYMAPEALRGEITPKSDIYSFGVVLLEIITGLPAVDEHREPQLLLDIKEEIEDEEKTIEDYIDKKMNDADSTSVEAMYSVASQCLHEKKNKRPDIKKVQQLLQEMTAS
# ASSAY TEXT: biochemical
# Type: biochemical
# CONDITION DETAILS: IRAK4 enzyme, TR-FRET (HTRF), 500 μM ATP
READOUT: IC50

CC(C)(O)[C@H](F)CNC(=O)c1cnc(-c2ccc3cc(C#N)cnn23)cc1NC1CCCC(S(C)(=O)=O)C1 (single isomer, unassigned) [Example 517]; < 1 nM
N#CCNC(=O)c1cnc(-c2ccc3cc(C#N)cnn23)cc1NC1COC1; < 1 nM

# return IC50 for each item in the list
1. CC(C)(O)[C@H](F)CNC(=O)c1cnc(-c2ccc3cc(C#N)cnn23)cc1NC12CCC(c3cnco3)(CC1)OC2
2. CC(C)(O)[C@H](F)CNC(=O)c1cnc(-c2ccc3cc(C#N)cnn23)cc1Nc1ccc(-n2cccn2)cc1
3. CC(C)(O)[C@H](F)CNC(=O)c1cnc(-c2ccc3cc(C#N)cnn23)cc1Nc1ccc2[nH]ncc2c1
4. Cn1cnc2cc(Nc3cc(-c4ccc5cc(C#N)cnn45)ncc3C(=O)NC[C@@H](F)C(C)(C)O)cnc21

Response:
1. < 1 nM
2. < 1 nM
3. < 1 nM
4. < 1 nM

---

# System: TNFα
# ASSAY TEXT: cells
# Type: cell-based, human
# CONDITION DETAILS: Homo sapiens, Monocyte, LPS-stimulated human monocytes, TNFα content; read-out: EC50 TNF
READOUT: EC50

Cc1noc(C)c1CNc1cc(-c2ccc3cc(C#N)cnn23)ncc1C(=O)NC[C@@H](F)C(C)(C)O; 0.961 µM
CN(C)C(=O)OC12CCC(Nc3cc(-c4ccc5cc(C#N)cnn45)ncc3C(=O)NC[C@@H](F)C(C)(C)O)(CC1)CC2; 0.062 µM

# return EC50 for each item in the list
1. CC(C)(O)[C@H](F)CNC(=O)c1cnc(-c2ccc3cc(C#N)cnn23)cc1Nc1ccc(F)nc1
2. CNC(=O)O[C@H]1C[C@@](C)(Nc2cc(-c3ccc4cc(C#N)cnn34)ncc2C(=O)NC[C@@H](F)C(C)(C)O)C1

Response:
["0.068 µM", "0.8 µM"]

# return EC50 for each item in the list
1. CC(C)(O)[C@H](F)CNC(=O)c1cnc(-c2ccc3cc(C#N)cnn23)cc1N[C@H]1CC[C@H](NC(=O)C(F)(F)F)CC1
2. CC(=O)OC12CCC(Nc3cc(-c4ccc5cc(C#N)cnn45)ncc3C(=O)NC[C@@H](F)C(C)(C)OC(C)=O)(CC1)CC2
3. COC(=O)NC[C@H]1CC[C@H](Nc2cc(-c3ccc4cc(C#N)cnn34)ncc2C(=O)NC[C@@H](F)C(C)(C)O)CC1
4. CC(C)(O)[C@H](F)CNC(=O)c1cnc(-c2ccc3cc(C#N)cnn23)cc1NCc1cn[nH]c1
5. CC(C)Nc1cc(-c2ccc3cc(C#N)cnn23)ncc1C(=O)N[C@H]1CC[C@H](NC(=O)N2CCOCC2)CC1
6. COc1cc(Nc2cc(-c3ccc4cc(C#N)cnn34)ncc2C(=O)NC[C@@H](F)C(C)(C)O)ccc1C(N)=O

Response:
1: 0.037 µM; 2: 0.151 µM; 3: 0.018 µM; 4: > 10 µM; 5: 0.092 µM; 6: 0.283 µM

---

# TARGET ENTITY: IRAK4 enzyme (Homo sapiens (Human), UniProt Q9NWZ3)
# ASSAY TEXT: biochemical
# Format: biochemical
# CONDITION DETAILS: IRAK4 enzyme, TR-FRET, 500 μM ATP
READOUT: IC50

// worked examples, IC50 included
CC(C)(O)[C@H](F)CNC(=O)c1cnc(-c2ccc3cc(C#N)cnn23)cc1Nc1cnc2c(c1)OCCN2; < 1 nM
CC(C)(O)[C@H](F)CNC(=O)c1cnc(-c2ccc3cc(C#N)cnn23)cc1N[C@H]1CCOC1; < 1 nM
CC(C)(O)[C@H](F)CNC(=O)c1cnc(-c2ccc3cc(C#N)cnn23)cc1Nc1cnn([C@@H]2CCNC2)c1; < 1 nM
CC(C)Nc1cc(-c2ccc3cc(C#N)cnn23)ncc1C(=O)NS(C)(=O)=O; 9380 nM
CNC(=O)[C@H]1CC[C@@H](Nc2cc(-c3ccc4cc(C#N)cnn34)ncc2C(=O)NC[C@@H](F)C(C)(C)O)CC1; 9 nM

# return IC50 for each item in the list
1. CC(C)(O)[C@H](F)CNC(=O)c1cnc(-c2ccc3cc(C#N)cnn23)cc1Nc1ccc(N2CCNCC2)nc1
2. CC(C)(O)[C@H](F)CNC(=O)c1cnc(-c2ccc3cc(C#N)cnn23)cc1Nc1cnc(N2CCNCC2)nc1
3. CC(C)(O)[C@H](F)CNC(=O)c1cnc(-c2ccc3cc(C#N)cnn23)cc1NC1CC(F)(F)C1
4. COC(=O)N[C@H]1CC[C@H](Nc2cc(-c3ccc4cc(C#N)cnn34)ncc2C(=O)NC[C@@H](F)C(C)(C)OC(C)=O)CC1

Response:
< 1 nM
< 1 nM
< 1 nM
1 nM
